# credit: paper PMC8134483

Tested System: hCB2R (Homo sapiens)
Sequence (P34972 whole entry): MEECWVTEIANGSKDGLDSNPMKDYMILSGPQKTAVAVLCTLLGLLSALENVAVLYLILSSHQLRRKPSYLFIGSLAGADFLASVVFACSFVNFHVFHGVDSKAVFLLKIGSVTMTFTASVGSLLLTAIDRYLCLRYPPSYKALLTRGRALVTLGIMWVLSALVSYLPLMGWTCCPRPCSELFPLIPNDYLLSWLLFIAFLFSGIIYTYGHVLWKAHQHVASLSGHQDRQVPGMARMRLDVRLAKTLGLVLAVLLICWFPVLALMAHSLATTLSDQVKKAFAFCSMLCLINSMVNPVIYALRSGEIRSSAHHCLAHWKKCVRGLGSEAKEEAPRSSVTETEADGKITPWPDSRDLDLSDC
pKi: −log10 of the molar value.
I would appreciate it if you labelled entries t when pKi is 7 or higher, otherwise f.

>>> class_assignment("CCCCCn1c2ccccc2c2cc(C(=O)c3cccc4ccccc34)ccc21")
"t"
>>> class_assignment("COC(=O)[C@H](Cc1ccccc1)NC(=O)c1cn(CCCCCF)c2ccccc12")
"f"
>>> class_assignment("CCCCCn1cc(C(=O)c2cccc3ccccc23)cc1-c1ccccc1")
"f"

Exam item: # bool: pKi of N#CCCCCn1cc(C(=O)c2cccc3ccccc23)c2ccccc21 >= 7
Marked response: f

Exam item: Check the entry O=C(c1ccc(Cl)c2ccccc12)c1cn(CCCCCF)c2ccccc12 : does pKi equal or exceed 7?
Marked response: t

Exam item: Is pKi for CC(C)C(NC(=O)c1nn(Cc2cccc(F)c2)c2ccccc12)C(N)=O (stereo not drawn) at or above 7?
Marked response: t

Exam item: State whether the measured pKi reaches 7, counting equality as reaching it, for O=C(Nc1cccc2ccccc12)c1cn(Cc2ccc(F)cc2)c2ccccc12
Marked response: t

Exam item: pKi >= 7 for CCCC(F)Cn1nc(C(=O)NC(C(N)=O)C(C)C)c2ccccc21 (stereo not drawn) [AB-PINACA N-(2-fluoropentyl) isomer] ?
Marked response: f
